Molecular target: CA IX (Homo sapiens)
Construct: gene CA9; recombinant, obtained in-house
Experiment: stopped-flow CO2 hydrase assay
Format: biochemical
Conditions: read-out: KI (nM) / CA II
Text: stopped-flow CO2 hydrase assay on CA IX
property.label: Ki (nM)
Write it as a number; the unit nM goes unstated.

Ki lookup needed for NS(=O)(=O)c1ccc(NC(=O)N2N=C(c3ccc(Cl)cc3)CC2c2ccccc2Cl)cc1 (stereo not shown) [compound 16] , thanks. 8

----------
Biological target: CA IX (Homo sapiens)
Construct: gene CA9; recombinant, obtained in-house
Experiment: stopped-flow CO2 hydrase assay
Type: biochemical
Conditions: read-out: KI (nM) / CA IX
property.label: Ki (nM)
Please give a number only; it is taken to be in nM.

Consider the reported Ki for these molecules:
[[record]]
molecule = "NS(=O)(=O)c1ccc(NC(=O)N2N=C(c3ccc(Br)cc3)CC2c2ccc(F)cc2)cc1 (centres unmarked) [compound 25]"
property_label = "Ki"
observed_result = 1.4

[[record]]
molecule = "NS(=O)(=O)c1ccc(NC(=O)N2N=C(c3ccc(Cl)cc3)CC2c2ccc(Cl)cc2)cc1 (centres unmarked) [compound 14]"
property_label = "Ki"
observed_result = 11.4

[[record]]
molecule = "NS(=O)(=O)c1ccc(NC(=O)N2N=C(c3ccccc3)CC2c2ccccc2)cc1 (centres unmarked) [compound 5]"
property_label = "Ki"
observed_result = 1.3

[[record]]
molecule = "NS(=O)(=O)c1ccc(NC(=O)N2N=C(c3ccccc3)CC2c2c3ccccc3cc3ccccc23)cc1 (centres unmarked) [compound 10]"
property_label = "Ki"
observed_result = 1.3

[[record]]
molecule = "NS(=O)(=O)c1ccc(NC(=O)N2N=C(c3ccccc3)CC2c2cccs2)cc1 (centres unmarked) [compound 9]"
property_label = "Ki"
observed_result = 1.4

[[record]]
molecule = "NS(=O)(=O)c1ccc(NC(=O)N2N=C(c3ccc(Cl)cc3)CC2c2ccc(Cl)cc2Cl)cc1 (centres unmarked) [compound 17]"
property_label = "Ki"
observed_result = 15


Which Ki is reported for this molecule? NS(=O)(=O)c1ccc(NC(=O)N2N=C(c3ccc(Br)cc3)CC2c2ccccc2)cc1 (centres unmarked) [compound 23] 1.4

Same question for NS(=O)(=O)c1ccc(NC(=O)N2N=C(c3ccc(Cl)cc3)CC2c2ccc(F)cc2)cc1 (centres unmarked) [compound 15] please. 2.7

----------
Target: CA XII (Homo sapiens, UniProt O43570)
Construct: gene CA12; recombinant, obtained in-house
Sequence (O43570 25-354): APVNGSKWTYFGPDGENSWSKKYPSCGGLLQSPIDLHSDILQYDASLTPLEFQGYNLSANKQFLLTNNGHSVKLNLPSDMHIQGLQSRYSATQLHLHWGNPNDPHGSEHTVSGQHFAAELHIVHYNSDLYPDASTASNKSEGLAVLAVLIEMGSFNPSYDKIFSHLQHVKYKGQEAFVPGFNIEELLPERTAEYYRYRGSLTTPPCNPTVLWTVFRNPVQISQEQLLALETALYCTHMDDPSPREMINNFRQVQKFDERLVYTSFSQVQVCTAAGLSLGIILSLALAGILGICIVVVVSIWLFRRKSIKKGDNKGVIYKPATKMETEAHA
Test: stopped-flow CO2 hydrase assay
Assay type: biochemical
A collection of molecules and their measured Ki
Field: numeric (nM). Do not append units.

Recorded results for 3 molecules are shown here.
[[record]]
molecule = "NS(=O)(=O)c1ccc(NC(=O)N2N=C(c3ccc(Cl)cc3)CC2c2ccc(Cl)cc2Cl)cc1 (stereo not shown)"
property_label = "Ki"
observed_result = 1.3

[[record]]
molecule = "NS(=O)(=O)c1ccc(NC(=O)N2N=C(c3ccc(Cl)cc3)CC2c2ccccc2O)cc1 (stereo not shown)"
property_label = "Ki"
observed_result = 0.99

[[record]]
molecule = "Cc1ccc(C2CC(c3ccc(Cl)cc3)=NN2C(=O)Nc2ccc(S(N)(=O)=O)cc2)cc1 (stereo not shown)"
property_label = "Ki"
observed_result = 9.2


Requested field: Ki. Item: NS(=O)(=O)c1ccc(NC(=O)N2N=C(c3ccccc3)CC2c2ccccc2)cc1 (stereo not shown) 7.7

----------
Target: CA I (Homo sapiens, UniProt P00915)
Construct: gene CA1; recombinant, obtained in-house
Sequence (P00915 2-261): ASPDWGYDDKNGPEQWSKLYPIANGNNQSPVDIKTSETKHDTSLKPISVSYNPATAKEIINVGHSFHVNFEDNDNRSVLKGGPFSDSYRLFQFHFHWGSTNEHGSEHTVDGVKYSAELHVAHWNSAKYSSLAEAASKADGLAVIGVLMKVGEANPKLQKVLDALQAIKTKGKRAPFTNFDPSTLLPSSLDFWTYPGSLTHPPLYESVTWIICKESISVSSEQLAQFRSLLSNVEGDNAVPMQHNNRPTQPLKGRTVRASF
Test: stopped-flow CO2 hydrase assay
Format: biochemical
Listing of entries alongside the reported log10(Ki).
Hi team, quick reminder: these entries are log10 of Ki (nM).

Example entries begin here.
[[record]]
compound = "COc1ccc(C2CC(c3ccc(Cl)cc3)=NN2C(=O)Nc2ccc(S(N)(=O)=O)cc2)cc1 (centres unmarked)"
property_label = "log10(Ki)"
observed_result = 2.57

[[record]]
compound = "NS(=O)(=O)c1ccc(NC(=O)N2N=C(c3ccccc3)CC2c2ccc(Cl)cc2)cc1 (centres unmarked)"
property_label = "log10(Ki)"
observed_result = 1.56

[[record]]
compound = "NS(=O)(=O)c1ccc(NC(=O)N2N=C(c3ccccc3)CC2c2ccc(F)cc2)cc1 (centres unmarked)"
property_label = "log10(Ki)"
observed_result = 2.40

[[record]]
compound = "NS(=O)(=O)c1ccc(NC(=O)N2N=C(c3ccc(Cl)cc3)CC2c2ccc(Cl)cc2Cl)cc1 (centres unmarked)"
property_label = "log10(Ki)"
observed_result = 2.89

[[record]]
compound = "NS(=O)(=O)c1ccc(NC(=O)N2N=C(c3ccc(Cl)cc3)CC2c2ccc(F)cc2)cc1 (centres unmarked)"
property_label = "log10(Ki)"
observed_result = 2.79

[[record]]
compound = "NS(=O)(=O)c1ccc(NC(=O)N2N=C(c3ccccc3)CC2c2ccccc2)cc1 (centres unmarked)"
property_label = "log10(Ki)"
observed_result = 2.58


Which log10(Ki) is reported for this compound? NS(=O)(=O)c1ccc(NC(=O)N2N=C(c3ccc(Br)cc3)CC2c2ccc(Cl)cc2)cc1 (centres unmarked) 1.66

Another compound: NS(=O)(=O)c1ccc(NC(=O)N2N=C(c3ccccc3)CC2c2c3ccccc3cc3ccccc23)cc1 (centres unmarked) 2.47

----------
Target: CA VII (Homo sapiens, UniProt P43166)
Construct: gene CA7; recombinant, obtained in-house
Sequence (P43166 whole entry): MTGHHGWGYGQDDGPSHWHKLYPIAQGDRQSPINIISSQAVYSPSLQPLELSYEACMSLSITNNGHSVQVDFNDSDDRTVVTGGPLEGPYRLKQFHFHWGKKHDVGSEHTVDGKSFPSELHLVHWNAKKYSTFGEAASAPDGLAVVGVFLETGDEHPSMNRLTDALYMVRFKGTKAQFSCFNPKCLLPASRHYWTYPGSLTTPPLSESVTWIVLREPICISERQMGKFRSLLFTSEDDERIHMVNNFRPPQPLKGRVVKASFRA
Assay: stopped-flow CO2 hydrase assay
Format: biochemical
property.label: Ki (nM)
Field format: number, assumed nM, no unit text.

Example entries and their recorded answers appear below.
[[record]]
compound = "NS(=O)(=O)c1ccc(NC(=O)N2N=C(c3ccc(Cl)cc3)CC2c2ccc(Cl)cc2)cc1 (stereo not shown) [compound 14]"
assay_target = "CA VII (Homo sapiens, UniProt P43166)"
unit = "nM"
observed_result = 3.3

[[record]]
compound = "NS(=O)(=O)c1ccc(NC(=O)N2N=C(c3ccc(Cl)cc3)CC2c2ccccc2O)cc1 (stereo not shown) [compound 20]"
assay_target = "CA VII (Homo sapiens, UniProt P43166)"
unit = "nM"
observed_result = 2.1

[[record]]
compound = "NS(=O)(=O)c1ccc(NC(=O)N2N=C(c3ccc(Cl)cc3)CC2c2ccccc2)cc1 (stereo not shown) [compound 12]"
assay_target = "CA VII (Homo sapiens, UniProt P43166)"
unit = "nM"
observed_result = 350


Let us move to another entry and its Ki.
Could you share what Ki was measured for NS(=O)(=O)c1ccc(NC(=O)N2N=C(c3ccccc3)CC2c2ccc(F)cc2)cc1 (stereo not shown) [compound 7] , tested on CA VII (Homo sapiens, UniProt P43166)? 2.3

----------
Target: CA I (Homo sapiens, UniProt P00915)
Construct: gene CA1; recombinant, obtained in-house
Test: stopped-flow CO2 hydrase assay
Type: biochemical
Parameter: Ki. Scope: all listed entries.
Value expressed in nM; do not type the unit.

The examples below pair each entry with its known result.
[[record]]
compound = "NS(=O)(=O)c1ccc(NC(=O)N2N=C(c3ccc(Cl)cc3)CC2c2ccccc2)cc1 (stereo not shown)"
assay_target = "CA I (Homo sapiens, UniProt P00915)"
unit = "nM"
observed_result = 239

[[record]]
compound = "NS(=O)(=O)c1ccc(NC(=O)N2N=C(c3ccccc3)CC2c2c(F)cccc2Cl)cc1 (stereo not shown)"
assay_target = "CA I (Homo sapiens, UniProt P00915)"
unit = "nM"
observed_result = 38.3

[[record]]
compound = "NS(=O)(=O)c1ccc(NC(=O)N2N=C(c3ccccc3)CC2c2ccc(Cl)cc2Cl)cc1 (stereo not shown)"
assay_target = "CA I (Homo sapiens, UniProt P00915)"
unit = "nM"
observed_result = 39.5

[[record]]
compound = "NS(=O)(=O)c1ccc(NC(=O)N2N=C(c3ccccc3)CC2c2cccs2)cc1 (stereo not shown)"
assay_target = "CA I (Homo sapiens, UniProt P00915)"
unit = "nM"
observed_result = 185

[[record]]
compound = "NS(=O)(=O)c1ccc(NC(=O)N2N=C(c3ccc(Cl)cc3)CC2c2ccccc2Cl)cc1 (stereo not shown)"
assay_target = "CA I (Homo sapiens, UniProt P00915)"
unit = "nM"
observed_result = 297


State its Ki on CA I (Homo sapiens, UniProt P00915): NS(=O)(=O)c1ccc(NC(=O)N2N=C(c3ccc(Cl)cc3)CC2c2ccc(Cl)cc2)cc1 (stereo not shown) 238

Next up: NS(=O)(=O)c1ccc(NC(=O)N2N=C(c3ccc(Cl)cc3)CC2c2c(F)cccc2Cl)cc1 (stereo not shown) 42.7

Moving on to the next compound: NS(=O)(=O)c1ccc(NC(=O)N2N=C(c3ccc(Cl)cc3)CC2c2cccs2)cc1 (stereo not shown) 726

Would you kindly repeat that for NS(=O)(=O)c1ccc(NC(=O)N2N=C(c3ccc(Cl)cc3)CC2c2ccccc2O)cc1 (stereo not shown) ? 74.2

# repeat for NS(=O)(=O)c1ccc(NC(=O)N2N=C(c3ccc(Br)cc3)CC2c2ccccc2)cc1 (stereo not shown) 44.4

COc1ccc(C2CC(c3ccc(Cl)cc3)=NN2C(=O)Nc2ccc(S(N)(=O)=O)cc2)cc1OC (stereo not shown) , same question. 166

Now this one: Cc1ccc(C2CC(c3ccc(Cl)cc3)=NN2C(=O)Nc2ccc(S(N)(=O)=O)cc2)cc1 (stereo not shown) 66.7

Let us now turn to NS(=O)(=O)c1ccc(NC(=O)N2N=C(c3ccc(Br)cc3)CC2c2ccc(F)cc2)cc1 (stereo not shown) 38.2
